Value source: PubChem BioAssay (NCI)

System: IGROV1 ovarian
Test: NCI-60 one-dose screen, 48 h
Settings: 10 µM unless noted
Compounds without any hit were thinned out: in the full panel of roughly 83,000, 20% have a hit. Active and inactive are the calls of the source. Rule for the calls: active = growth percent below 10; inactive = the rest.
Labels: active, inactive

>  <Compound>
N#CC(C#N)C(C#N)C#N

>  <Assigned Class>
inactive

$$$$
>  <Compound>
COc1cccc(-c2nc3cc(NC(=O)c4ccc(Cl)c(C#N)c4)ccc3o2)c1

>  <Assigned Class>
inactive

$$$$
>  <Compound>
C/C(=C\CCc1ccsc1)CC/C=C(\C)CCCN1CCSCC1

>  <Assigned Class>
inactive

$$$$
>  <Compound>
O=C1NCCc2c1noc2-c1ccccc1

>  <Assigned Class>
inactive

$$$$
>  <Compound>
COc1cc(-c2nc3nc4sc(C)c(C)c4c(=O)n3[nH]2)cc(OC)c1OC

>  <Assigned Class>
inactive

$$$$
>  <Compound>
COc1ccc(C2=NN(C(N)=S)C(c3ccc4c(c3)OCO4)C2)cc1 (stereo not drawn)

>  <Assigned Class>
active

$$$$
>  <Compound>
COc1cc(/C=C/C(=O)CC(=O)/C=C/c2ccc(OC(=O)CCNC34CC5CC(CC(C5)C3)C4)c(OC)c2)ccc1OC(=O)CCNC12CC3CC(CC(C3)C1)C2

>  <Assigned Class>
active

$$$$
>  <Compound>
O=C(CC1Sc2ccccc2NC1=O)NNc1cccc(Cl)c1Cl (stereo not drawn)

>  <Assigned Class>
inactive

$$$$
>  <Compound>
Nc1nc(Nc2ccccc2SSc2ccccc2Nc2nc(N)nc(C(Cl)(Cl)Cl)n2)nc(C(Cl)(Cl)Cl)n1

>  <Assigned Class>
inactive

$$$$
>  <Compound>
COc1cc(C2CC(C3C(=O)N(C)C(=O)N(C)C3=O)=NN2c2cc(Cl)cc(Cl)c2)cc(OC)c1OC (stereo not drawn)

>  <Assigned Class>
inactive

$$$$
>  <Compound>
COC(=O)[C@H](CCCCNC(=O)OCc1ccccc1)NC(=O)[C@@H](NC(=O)Nc1cc(C(F)(F)F)cc(C(F)(F)F)c1)C(C)C

>  <Assigned Class>
active

$$$$
>  <Compound>
Cc1cc2c(cc1C)[n+](Cc1ccc3ccccc3n1)cn2Cc1ccc2ccccc2n1

>  <Assigned Class>
active

$$$$
>  <Compound>
CCN(CC)c1ccc(C(=C2C=CC(=[N+](CC)Cc3cccc(S(=O)(=O)O)c3)C=C2)c2ccc(N(CC)Cc3cccc(S(=O)(=O)O)c3)cc2)cc1

>  <Assigned Class>
inactive

$$$$
>  <Compound>
COc1ccc(C2=NN(C(C)=O)C(c3cccc(Nc4ccnc5cc(Cl)ccc45)c3)C2)cc1 (stereo not drawn)

>  <Assigned Class>
inactive

$$$$
>  <Compound>
O=CN1N=C(c2ccc(Cl)cc2)CC1c1cccc(Nc2ccnc3cc(Cl)ccc23)c1 (stereo not drawn)

>  <Assigned Class>
inactive

$$$$
>  <Compound>
CC1C(=O)NC2=Nc3ccccc3C(=O)NN21 (stereo not drawn)

>  <Assigned Class>
inactive

$$$$
>  <Compound>
CO[C@H]1/C=C/O[C@@]2(C)Oc3c(C)c(O)c4c(O)c(c(/C=N/N5C(C)CN(Cc6ccc(C#N)cc6)CC5C)c(O)c4c3C2=O)NC(=O)/C(C)=C\C=C\[C@H](C)[C@H](O)[C@@H](C)[C@@H](O)[C@@H](C)[C@H](OC(C)=O)[C@@H]1C (stereo partly drawn)

>  <Assigned Class>
inactive

$$$$
>  <Compound>
COc1ccc(-c2c3c(N)nc(-c4ccncc4)nc3nc3c2c(C)nn3-c2ccccc2)cc1

>  <Assigned Class>
inactive

$$$$

###

System: SN12C renal
Experiment: NCI-60 one-dose screen, 48 h
Conditions: 10 µM unless noted
The panel holds about 83,000 compounds, 20% with a hit somewhere; the sample as a whole holds those more often. Activity calls are given as the source filed them. Rule for the calls: active = growth percent below 10; inactive = the rest.
Labels: Yes = active, No = inactive

>  <Compound>
N#Cc1ccccc1C#Cc1ccccc1C#Cc1ccc(OCCCCCCOc2ccc(C#Cc3ccccc3C#Cc3ccccc3C#N)cc2)cc1

>  <Assigned Class>
No

$$$$
>  <Compound>
NS(=O)(=O)N(c1cc(C(F)(F)F)cc(C(F)(F)F)c1)C1CCN(Cc2ccc(C(F)(F)F)cc2)CC1

>  <Assigned Class>
No

$$$$
>  <Compound>
NS(=O)(=O)c1ccc(N2CC(c3nc4ccccc4[nH]3)CC2=O)cc1 (stereo not given)

>  <Assigned Class>
No

$$$$
>  <Compound>
CCCCCc1c(C)[nH]c(/C=C2\N=C(c3ccc[nH]3)C=C2Oc2ccccc2)c1C

>  <Assigned Class>
Yes

$$$$
>  <Compound>
CCOC(=O)c1cc2oc(/C=C/c3cc(=O)c4cc(Cl)ccc4o3)cc2[nH]1

>  <Assigned Class>
No

$$$$
>  <Compound>
COc1ccc2c(c1)[n+](=O)c(/C=C/C(=O)c1cc(OC)c(OC)c(OC)c1)c(C)n2[O-]

>  <Assigned Class>
No

$$$$
>  <Compound>
COc1ccc2c(c1)sc1nc(-c3ccc(N(C)C)cc3)cn12

>  <Assigned Class>
No

$$$$
>  <Compound>
CC(C)Cn1cnc2c(NCn3nc(-c4cc(Cl)cc(Cl)c4Cl)n(/N=C/c4ccc(Cl)cc4)c3=S)nc3ccccc3c21

>  <Assigned Class>
No

$$$$
>  <Compound>
O=C1/C(=C/c2ccccc2O)C(=S)SN1Cc1ccco1

>  <Assigned Class>
No

$$$$
>  <Compound>
CCc1nn2c(-c3ccc(Cl)cc3C)c(-c3cc(OC)c(OC)c(OC)c3)nc2s1

>  <Assigned Class>
No

$$$$
>  <Compound>
COc1ccc2c(c1)CC[C@@H]1[C@@H]2CC[C@]2(C)[C@@H](O)C(=O)C[C@@H]12

>  <Assigned Class>
No

$$$$
>  <Compound>
COCCCNS(=O)(=O)c1ncnc2nc[nH]c12

>  <Assigned Class>
No

$$$$
>  <Compound>
COc1cccc(C2=NN(C(C)=O)C(c3cc(OC)c(OC)c(OC)c3)C2)c1 (stereo not given)

>  <Assigned Class>
No

$$$$
>  <Compound>
COc1ccc(C(=O)COc2ccc(/C=C3\Oc4ccc5ccccc5c4C3=O)cc2)cc1

>  <Assigned Class>
No

$$$$
>  <Compound>
Nc1nc(Nc2ccccc2SSc2ccccc2Nc2nc(N)nc(C(Cl)(Cl)Cl)n2)nc(C(Cl)(Cl)Cl)n1

>  <Assigned Class>
No

$$$$
>  <Compound>
O=C(NC1CCCCC1)c1ccc(Nc2ncnc3c2cnn3-c2ccccc2)cc1

>  <Assigned Class>
No

$$$$
>  <Compound>
O=C(/C=C/c1ccc(C(F)(F)F)cc1)c1ccc(Nc2nc(NCCO)nc(NCCO)n2)cc1

>  <Assigned Class>
No

$$$$
>  <Compound>
CCOC(=O)C1C(=O)NC(C(=O)OCC)(C(=O)OCC)C1CC (stereo not given)

>  <Assigned Class>
No

$$$$
>  <Compound>
CCCCCN1C(=O)CCC1=O

>  <Assigned Class>
No

$$$$
>  <Compound>
CCOc1cc(/C=C/C(=O)C(C(=O)/C=C/c2ccc(OC(=O)CNc3nnc(C)s3)c(OCC)c2)C(=O)CNc2nnc(C)s2)ccc1OC(=O)CNc1nnc(C)s1

>  <Assigned Class>
Yes

$$$$
>  <Compound>
O=[N+]([O-])c1ccc(N=Nc2c(Cl)cc(O)cc2Cl)cc1

>  <Assigned Class>
Yes

$$$$
>  <Compound>
COc1cc(-c2nc3nc4sc(C)c(C)c4c(=O)n3[nH]2)cc(OC)c1OC

>  <Assigned Class>
No

$$$$
>  <Compound>
O=C(O)C1C(c2ccccc2)c2ccccc2C(O)C1CO (stereo not given)

>  <Assigned Class>
No

$$$$
>  <Compound>
CCOC(=O)c1sc(NC(=O)COc2ccc(/C=C3\CCc4cc(OC)ccc4C3=O)cc2)nc1C

>  <Assigned Class>
No

$$$$
>  <Compound>
O=C(NCCCl)NCCN1c2nc3ccccc3cc2Sc2cc3ccccc3nc21

>  <Assigned Class>
No

$$$$
>  <Compound>
c1ccc(-c2oc(-c3ccccc3)c3ccccc23)cc1

>  <Assigned Class>
No

$$$$
>  <Compound>
CCOC(=O)c1sc(NC(=O)COc2cccc(/C=C3\CCc4cc(OC)ccc4C3=O)c2)nc1C

>  <Assigned Class>
No

$$$$
>  <Compound>
Cc1ccc(C(=O)Cc2ccccc2)c(O)c1

>  <Assigned Class>
No

$$$$
>  <Compound>
C=CCN(/C=C/CN(CC=C)CC=C)CC=C

>  <Assigned Class>
No

$$$$
>  <Compound>
C/C(=C\CCc1ccoc1)CC/C=C(\C)CCCNc1ccc(F)cc1

>  <Assigned Class>
No

$$$$
>  <Compound>
O=C(CSc1ncc(-c2ccccc2)n1-c1ccccc1)Nc1ccc(-c2nc3ccccc3s2)cc1

>  <Assigned Class>
No

$$$$
>  <Compound>
O=C1NC(=S)S/C1=C\c1cc(Br)ccc1O

>  <Assigned Class>
No

$$$$
>  <Compound>
O=C1C(=O)/C(=C/c2ccccc2)CCCCCC/C1=C/c1ccccc1

>  <Assigned Class>
No

$$$$
>  <Compound>
C(=C1c2ccccc2-c2ccccc21)c1ccccn1

>  <Assigned Class>
No

$$$$
>  <Compound>
CC(=O)c1nn(-c2ccccc2)c(=Nc2ccccc2)cc1C

>  <Assigned Class>
No

$$$$
>  <Compound>
Cc1sc2nc(NCCc3cccs3)[nH]c(=O)c2c1C

>  <Assigned Class>
No

$$$$
>  <Compound>
O=C(CNC(=O)c1cccc2ccccc12)Nc1ccccc1Oc1cccc(O)c1

>  <Assigned Class>
No

$$$$
>  <Compound>
O=C1C2C(C(=O)N1CC[Se][Se]CCN1C(=O)C3C(C1=O)[C@H]1C=C[C@@H]3C1)[C@H]1C=C[C@@H]2C1 (stereo not given in full)

>  <Assigned Class>
Yes

$$$$
>  <Compound>
COc1cc(/C=C/C(=O)C(C(=O)/C=C/c2ccc(OC(=O)CCNC34CC5CC(CC(C5)C3)C4)c(OC)c2)C(=O)CCNC23CC4CC(CC(C4)C2)C3)ccc1OC(=O)CCNC12CC3CC(CC(C3)C1)C2 (stereo not given)

>  <Assigned Class>
Yes

$$$$
>  <Compound>
Cc1ccc(NC(=O)c2sc3nc4c(cc3c2N)C(=O)CCC4)cc1

>  <Assigned Class>
No

$$$$
